# TGT: IgE of patient serum 4
# PROCEDURE SUMMARY: ELISA inhibition, serum 4 pre-incubated with 1.25 µg/ml inhibitor; competitor: wt Bet v 1 adsorbed on wells
Parameter: % inhibition of Bet v 1-IgE binding. Scope: all listed entries.
API: value field is a number in %; no unit string.

For orientation, consider the following solved cases.
mutant Bet v 1-Mal d 1 hybrid molecule (SEQ ID NO: 4) (protein) HHHHHHGVFNYETETTSVIPAARLFKAFILDGDNLFPKVAPQAISSVENIEGNGGPGTIAKISFPEGFPFKYVKDRVDEVDHTNFKYNYSVIEGGPIGDTLEKISNEIKIVATPDGGSILAINNKYHTAGDHEVKAEQIKASKEMGETLLRAVESYLLAHSDAYNEFGVYTFENEFTSEIPPSRLFKAFVLAADNLIPKIAPQAIKQAEILEGDGGPGTIKKITFGEGSQYGYVKHKIDSVDEAAYSYAYTLIEGDALTDTIEKVSYETKLVASGSGSIIKSISHYHTKGDVEIKEEHVKAGKEKAHGLFKLIESYLKGHPDAYN    35.9
mixture of the single wt allergens (wt Bet v 1 and wt Mal d 1) (protein) chain 1: HHHHHHGVFNYETETTSVIPAARLFKAFILDGDNLFPKVAPQAISSVENIEGNGGPGTIKKISFPEGFPFKYVKDRVDEVDHTNFKYNYSVIEGGPIGDTLEKISNEIKIVATPDGGSILKINNKYHTKGDHEVKAEQIKASKEMGETLLRAVESYLLAHSDAYN chain 2: HHHHHHGVYTFENEFTSEIPPSRLFKAFVLDADNLIPKIAPQAIKQAEILEGDGGPGTIKKITFGEGSQYGYVKHKIDSVDEANYSYAYTLIEGDALTDTIEKVSYETKLVASGSGSIIKSISHYHTKGDVEIKEEHVKAGKEKAHGLFKLIESYLKGHPDAYN    81.2

Please examine the following record next.
For reference, reported % inhibition of Bet v 1-IgE binding for wild-type Bet v 1-Mal d 1 hybrid molecule (SEQ ID NO: 3) (protein) HHHHHHGVFNYETETTSVIPAARLFKAFILDGDNLFPKVAPQAISSVENIEGNGGPGTIKKISFPEGFPFKYVKDRVDEVDHTNFKYNYSVIEGGPIGDTLEKISNEIKIVATPDGGSILKINNKYHTKGDHEVKAEQIKASKEMGETLLRAVESYLLAHSDAYNEFGVYTFENEFTSEIPPSRLFKAFVLDADNLIPKIAPQAIKQAEILEGDGGPGTIKKITFGEGSQYGYVKHKIDSVDEANYSYAYTLIEGDALTDTIEKVSYETKLVASGSGSIIKSISHYHTKGDVEIKEEHVKAGKEKAHGLFKLIESYLKGHPDAYN stands at 61.7
